Measured inhibition at 100 µg/mL by item
test system: Laetiporus sulphureus; experiment: Antifungal activity against Laetiporus sulphureus BCRC 35305 (wood decay fungi) assessed as reduction of fungi mycelium growth at 100 ug/ml; assay type: functional
measure: inhibition at 100 µg/mL (%)

{"molecule": "C[C@@H]1CC[C@H]2C(C)(C)[C@H]3C[C@@]12CC[C@@]3(C)O", "system.under.test": "Laetiporus sulphureus", "measure": "inhibition at 100 µg/mL", "unit.tag": "%", "numeric.readout": 100}
{"molecule": "C=CC(=C)CC[C@@H]1[C@@]2(C)CCCC(C)(C)[C@@H]2CC[C@@]1(C)O", "system.under.test": "Laetiporus sulphureus", "measure": "inhibition at 100 µg/mL", "unit.tag": "%", "numeric.readout": 8.2}
{"molecule": "CC1=C[C@@H]2[C@@H](CC1)[C@@](C)(O)CC[C@H]2C(C)C", "system.under.test": "Laetiporus sulphureus", "measure": "inhibition at 100 µg/mL", "unit.tag": "%", "numeric.readout": 100}
{"molecule": "CCCCCCCCCC[N+](C)(C)CCCCCCCCCC [DIDECYLDIMETHYLAMMONIUM CHLORIDE]", "system.under.test": "Laetiporus sulphureus", "measure": "inhibition at 100 µg/mL", "unit.tag": "%", "numeric.readout": 100}
{"molecule": "CC1=C[C@H]2[C@H](C(C)C)CC[C@](C)(O)[C@H]2CC1", "system.under.test": "Laetiporus sulphureus", "measure": "inhibition at 100 µg/mL", "unit.tag": "%", "numeric.readout": 100}
